Tested on: pathogenic bacteria
assay-protocol: MIC by microdilution broth method (NCCLS M7-A4), in vitro antibacterial activity
Format: cell-based
condition-set: Streptococcus pneumoniae, Organism B: fluoroquinolone-resistant clinical isolate of Streptococcus pneumoniae (QRDR amino acid substitutions)
Structures can show the parent of a compound that is named as a salt.
Criterion: MIC strictly less than 2 µg/mL. Met: y. Not met: n.

[
  {
    "molecule": "C/C(CN)=C1\\CCCN(c2c(F)cc3c(=O)c(C(=O)O)cn(-c4nc(N)c(F)cc4F)c3c2Cl)C1 [Compound 422]",
    "assigned-class": "n"
  },
  {
    "molecule": "COc1c(N2CCC/C(=C(\\F)CN)C2)c(F)cc2c(=O)c(C(=O)O)cn(C3CC3)c12 [Compound 303, Trifluoroacetic Acid Salt]",
    "assigned-class": "y"
  },
  {
    "molecule": "CNCC(F)=C1CN(c2c(F)cc3c(=O)c(C(=O)O)cn(-c4nc(N)c(F)cc4F)c3c2Cl)C1 [Compound 418]",
    "assigned-class": "n"
  },
  {
    "molecule": "CC(CN)=C1CCN(c2cc3c(cc2F)c(=O)c(C(=O)O)cn3C2CC2)CC1 [Compound 64]",
    "assigned-class": "n"
  },
  {
    "molecule": "CC(CN)=C1CCN(c2nc3c(cc2F)c(=O)c(C(=O)O)cn3C2CC2)CC1 [Compound 2]",
    "assigned-class": "y"
  },
  {
    "molecule": "Cc1c(F)c(N2CCC(=C(Cl)CN)CC2)cc2c1c(=O)c(C(=O)O)cn2C1CC1 [Compound 263]",
    "assigned-class": "y"
  },
  {
    "molecule": "COc1c(N2CC(=C(C)CN)C2)c(F)cc2c(=O)c(C(=O)O)cn([C@@H]3C[C@@H]3F)c12 [Compound 368]",
    "assigned-class": "n"
  }
]

Moving on to the next molecule.
A record lists N#C/C(CN)=C1\CCCN(c2nc3c(cc2F)c(=O)c(C(=O)O)cn3C2CC2)C1 [Compound 441] . Is its MIC below 2 µg/mL?
n
